B1: library; a variant is named by its letters at N, in order (parent)
chain: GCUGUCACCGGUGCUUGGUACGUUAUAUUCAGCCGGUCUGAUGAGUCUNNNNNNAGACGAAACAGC

# Variants of: B1
# ASSAY: normalized RNA/DNA level with ligand (relative to sTRSVctl = 100) (log10 (% of sTRSVctl)); HEK293T overexpressing SLC46A1; ligand concentration (+) RNA-Seq: 6 mM; higher = less ribozyme self-cleavage, higher mRNA level
# COND: with (6R,S)-folinic acid; ligand present: yes
ENDPOINT_NAME: normalized RNA/DNA level with ligand (log10)

[[record]]
residue_codes = "GCUGUCACCGGUGCUUGGUACGUUAUAUUCAGCCGGUCUGAUGAGUCUAAUACUAGACGAAACAGC [AAUACU]"
measured = 1.99

[[record]]
residue_codes = "GCUGUCACCGGUGCUUGGUACGUUAUAUUCAGCCGGUCUGAUGAGUCUGGGCUAAGACGAAACAGC [GGGCUA]"
measured = 2.05

[[record]]
residue_codes = "GCUGUCACCGGUGCUUGGUACGUUAUAUUCAGCCGGUCUGAUGAGUCUGCCUGAAGACGAAACAGC [GCCUGA]"
measured = 2.07

[[record]]
residue_codes = "GCUGUCACCGGUGCUUGGUACGUUAUAUUCAGCCGGUCUGAUGAGUCUCGCUUCAGACGAAACAGC [CGCUUC]"
measured = 2.09

[[record]]
residue_codes = "GCUGUCACCGGUGCUUGGUACGUUAUAUUCAGCCGGUCUGAUGAGUCUUCAGACAGACGAAACAGC [UCAGAC]"
measured = 2

[[record]]
residue_codes = "GCUGUCACCGGUGCUUGGUACGUUAUAUUCAGCCGGUCUGAUGAGUCUGAAGAUAGACGAAACAGC [GAAGAU]"
measured = 2.03

[[record]]
residue_codes = "GCUGUCACCGGUGCUUGGUACGUUAUAUUCAGCCGGUCUGAUGAGUCUUGCUUAAGACGAAACAGC [UGCUUA]"
measured = 2.03

[[record]]
residue_codes = "GCUGUCACCGGUGCUUGGUACGUUAUAUUCAGCCGGUCUGAUGAGUCUCCCAAUAGACGAAACAGC [CCCAAU]"
measured = 2.03

[[record]]
residue_codes = "GCUGUCACCGGUGCUUGGUACGUUAUAUUCAGCCGGUCUGAUGAGUCUCCGGUAAGACGAAACAGC [CCGGUA]"
measured = 2.01

[[record]]
residue_codes = "GCUGUCACCGGUGCUUGGUACGUUAUAUUCAGCCGGUCUGAUGAGUCUGCUUAAAGACGAAACAGC [GCUUAA]"
measured = 2.01

[[record]]
residue_codes = "GCUGUCACCGGUGCUUGGUACGUUAUAUUCAGCCGGUCUGAUGAGUCUGUUCAUAGACGAAACAGC [GUUCAU]"
measured = 2.02

[[record]]
residue_codes = "GCUGUCACCGGUGCUUGGUACGUUAUAUUCAGCCGGUCUGAUGAGUCUAAAGUUAGACGAAACAGC [AAAGUU]"
measured = 2.01

[[record]]
residue_codes = "GCUGUCACCGGUGCUUGGUACGUUAUAUUCAGCCGGUCUGAUGAGUCUCUGGUUAGACGAAACAGC [CUGGUU]"
measured = 1.99

[[record]]
residue_codes = "GCUGUCACCGGUGCUUGGUACGUUAUAUUCAGCCGGUCUGAUGAGUCUUAAUCAAGACGAAACAGC [UAAUCA]"
measured = 1.97

[[record]]
residue_codes = "GCUGUCACCGGUGCUUGGUACGUUAUAUUCAGCCGGUCUGAUGAGUCUACCAUUAGACGAAACAGC [ACCAUU]"
measured = 2.04

[[record]]
residue_codes = "GCUGUCACCGGUGCUUGGUACGUUAUAUUCAGCCGGUCUGAUGAGUCUAGGAGUAGACGAAACAGC [AGGAGU]"
measured = 2.03

[[record]]
residue_codes = "GCUGUCACCGGUGCUUGGUACGUUAUAUUCAGCCGGUCUGAUGAGUCUAAAGACAGACGAAACAGC [AAAGAC]"
measured = 2.01

[[record]]
residue_codes = "GCUGUCACCGGUGCUUGGUACGUUAUAUUCAGCCGGUCUGAUGAGUCUUCGUGCAGACGAAACAGC [UCGUGC]"
measured = 2.06

[[record]]
residue_codes = "GCUGUCACCGGUGCUUGGUACGUUAUAUUCAGCCGGUCUGAUGAGUCUCCGACUAGACGAAACAGC [CCGACU]"
measured = 2.01

[[record]]
residue_codes = "GCUGUCACCGGUGCUUGGUACGUUAUAUUCAGCCGGUCUGAUGAGUCUAGGAUCAGACGAAACAGC [AGGAUC]"
measured = 2.01

[[record]]
residue_codes = "GCUGUCACCGGUGCUUGGUACGUUAUAUUCAGCCGGUCUGAUGAGUCUUCAAUCAGACGAAACAGC [UCAAUC]"
measured = 2.06

[[record]]
residue_codes = "GCUGUCACCGGUGCUUGGUACGUUAUAUUCAGCCGGUCUGAUGAGUCUCUGUCCAGACGAAACAGC [CUGUCC]"
measured = 2.04

[[record]]
residue_codes = "GCUGUCACCGGUGCUUGGUACGUUAUAUUCAGCCGGUCUGAUGAGUCUCCUGGUAGACGAAACAGC [CCUGGU]"
measured = 2.09

[[record]]
residue_codes = "GCUGUCACCGGUGCUUGGUACGUUAUAUUCAGCCGGUCUGAUGAGUCUUCACGUAGACGAAACAGC [UCACGU]"
measured = 2.01


Just for reference, the supplement of paper PMC6757056 is where these values come from.
